pKi values for Sodium-dependent serotonin transporter (Homo sapiens, UniProt P31645) compiled from several publications are listed below.
Expect pKi as a plain number equal to -log10 of the molar concentration.

// worked examples, pKi included
CC(C)C1(Oc2cc(Br)ccc2OCc2cccc(Cl)c2)CNC1	5.77
CNCc1cc(C(=O)N2CCCN(C3CCC3)CC2)ccc1Oc1ccc(Cl)c(Cl)c1	8.01
C[C@H](Oc1ccccc1OC1CCCCC1)[C@H]1CCCNC1	5.74
Fc1ccc(-c2ccc(OC(F)(F)F)cc2)c(CO[C@H]2CCNC2)c1	7.78
Cc1ccc(-c2ccc(F)cc2CO[C@H]2CCNC2)cc1C	6.66
Cc1ccc(OC[C@H]2CCCNC2)c(Oc2ccccc2C)n1	5.55
Clc1ccc(OC2CC(c3ccccc3)C2)c(OC2CNC2)c1 (centres unmarked)	7.14
CN(C)CCC(Oc1ccc(C(F)(F)F)cc1)c1ccc(OCCCN2CCCCC2)cc1 (centres unmarked)	7.85
Cc1ccc(-c2ccccc2CO[C@H]2CCNC2)cc1C	6.96

Consider the record given below.
Input line: Under Sodium-dependent serotonin transporter (Homo sapiens, UniProt P31645): report pKi of COc1cc(Cl)ccc1Oc1nc(C)ccc1OC[C@H]1CCCNC1 .
Output line: 6.92

----------
pKi: −log10 of the molar value.
pKi values for Sodium-dependent serotonin transporter (Homo sapiens) compiled from several publications are listed below.

CSc1ccccc1O[C@@H](C1CC1)[C@H]1CCNC1	≥ 7.00
Cc1cc(Cl)ccc1O[C@H](CC(C)C)[C@H]1CCNC1	≥ 8.00
FC(F)(F)Oc1ccc(COc2ccc(Cl)cc2OC2CNC2)cc1	6.24
CCOc1ccc(-c2ccc(F)cc2CO[C@H]2CCNC2)cc1	6.49
CC(C)CC(Oc1ccc(Cl)cc1F)C1CCNC1 (stereo not drawn)	≥ 8.00
Fc1cc(O[C@H](C2CC2)[C@H]2CCNC2)ccc1Cl	≥ 8.00
Cc1cccc(-c2ccccc2CO[C@H]2CCNC2)c1C	7.22
Clc1ccccc1O[C@H](C1CC1)[C@H]1CCNC1	≥ 8.00

Input line: Under Sodium-dependent serotonin transporter (Homo sapiens): report pKi of CCN1CCOC(COc2ccc3c(c2)CN(C)CC3c2ccc(OC)cc2)C1 (mixture of isomers) .
Output line: 7.96

Input line: Under Sodium-dependent serotonin transporter (Homo sapiens): report pKi of CC(C)CC(Oc1c(Cl)c(F)cc(F)c1Cl)C1CCNC1 (stereo not drawn) .
Output line: ≥ 8.00

Input line: Under Sodium-dependent serotonin transporter (Homo sapiens): report pKi of Cc1ccc(O[C@@H](C2CC2)[C@H]2CCNC2)c(F)c1F .
Output line: ≥ 8.00

Input line: Under Sodium-dependent serotonin transporter (Homo sapiens): report pKi of COc1c(O[C@H](C2CC2)[C@H]2CCNC2)ccc(Cl)c1Cl .
Output line: ≥ 8.00

----------
log10 Ki values for Sodium-dependent serotonin transporter (Homo sapiens, UniProt P31645) compiled from several publications are listed below.
Hi team, quick reminder: these entries are log10 of Ki (nM).

Cc1ccc(OC[C@H]2CCCNC2)c(Oc2ccccc2)n1	2.72
COc1cc([C@H]2CN3CCC[C@H]3c3cc(OCCCN4CCCCC4)ccc32)cc(OC)c1OC (relative stereo)	2.34
Fc1cc(Cl)ccc1Oc1cc(Cl)ccc1OC[C@H]1CCCNC1	1.56
NC(=O)c1cccc(-c2ccc(F)cc2CO[C@H]2CCNC2)c1	3.33
Fc1ccc2c(-c3c(F)cccc3F)nc(C3CCNCC3)nc2c1	1.72

Input line: Under Sodium-dependent serotonin transporter (Homo sapiens, UniProt P31645): report log10 Ki of Cc1ccc(OC[C@H]2CCCNC2)c(Oc2ccc(F)cc2Cl)n1 .
Output line: 2.20

Input line: Under Sodium-dependent serotonin transporter (Homo sapiens, UniProt P31645): report log10 Ki of Fc1ccc(Oc2ncccc2OC[C@H]2CCCNC2)cc1F.O=C(O)/C=C/C(=O)O .
Output line: 3.82

Input line: Under Sodium-dependent serotonin transporter (Homo sapiens, UniProt P31645): report log10 Ki of Clc1cnc(OCc2ccccc2)c(OC2CNC2)c1 .
Output line: 1.72

Input line: Under Sodium-dependent serotonin transporter (Homo sapiens, UniProt P31645): report log10 Ki of C[C@H]1CNCCN1c1nc(-c2c(F)cccc2F)c2ccccc2n1 .
Output line: 1.77

Input line: Under Sodium-dependent serotonin transporter (Homo sapiens, UniProt P31645): report log10 Ki of CC(C)N(C(=O)c1ccccc1-c1ccccc1CO[C@H]1CCNC1)C(C)C .
Output line: 2.29

Input line: Under Sodium-dependent serotonin transporter (Homo sapiens, UniProt P31645): report log10 Ki of CSc1ccc(OC(CCN(C)C)c2ccc(OCCCN3CCCCC3)cc2)cc1 (stereo not shown) .
Output line: 1.00

Input line: Under Sodium-dependent serotonin transporter (Homo sapiens, UniProt P31645): report log10 Ki of Clc1ccc(OCc2cc3ccccc3o2)c(OC2CNC2)c1 .
Output line: 2.38

Input line: Under Sodium-dependent serotonin transporter (Homo sapiens, UniProt P31645): report log10 Ki of Clc1ccc(CCOc2ccc(Cl)cc2OC2CNC2)cc1 .
Output line: 1.94

Input line: Under Sodium-dependent serotonin transporter (Homo sapiens, UniProt P31645): report log10 Ki of CCN1Cc2cc(OCCCN3CCCCC3)ccc2C(c2ccc(OC)cc2)C1 (stereo not shown) .
Output line: 0.60

Input line: Under Sodium-dependent serotonin transporter (Homo sapiens, UniProt P31645): report log10 Ki of NCCC(Oc1ccc(C(F)(F)F)cc1)c1ccc(OCCCN2CCCCC2)cc1 (stereo not shown) .
Output line: 0.00

Input line: Under Sodium-dependent serotonin transporter (Homo sapiens, UniProt P31645): report log10 Ki of C[C@@H](Oc1ccc(Cl)cc1OC1CCNCC1)c1cccc(C(F)(F)F)c1 .
Output line: 1.98

Input line: Under Sodium-dependent serotonin transporter (Homo sapiens, UniProt P31645): report log10 Ki of c1ccc(-c2ccc3c(c2)CCO3)c(CO[C@H]2CCNC2)c1 .
Output line: 2.74

Input line: Under Sodium-dependent serotonin transporter (Homo sapiens, UniProt P31645): report log10 Ki of COc1cccc(-c2ccc(F)cc2CO[C@H]2CCNC2)c1F .
Output line: 3.16

Input line: Under Sodium-dependent serotonin transporter (Homo sapiens, UniProt P31645): report log10 Ki of CSc1ccc(C2CN(C)Cc3cc(OCCCN4CCOC[C@@H]4C)ccc32)cc1 (stereo partly shown) .
Output line: 0.70

Input line: Under Sodium-dependent serotonin transporter (Homo sapiens, UniProt P31645): report log10 Ki of Cc1ccc(OC[C@H]2CCCNC2)c(Oc2cc(F)c(F)cc2F)n1 .
Output line: 2.11

Input line: Under Sodium-dependent serotonin transporter (Homo sapiens, UniProt P31645): report log10 Ki of CN(C)CCC(Sc1ccccc1)c1ccc(OCCCN2CCCCC2)cc1 (stereo not shown) .
Output line: 1.72

Input line: Under Sodium-dependent serotonin transporter (Homo sapiens, UniProt P31645): report log10 Ki of CN(C)CCC(Oc1ccc(C#N)cc1)c1ccc(OCCCN2CCCCC2)cc1 (stereo not shown) .
Output line: 2.20

Input line: Under Sodium-dependent serotonin transporter (Homo sapiens, UniProt P31645): report log10 Ki of CCN1CCN(CCCOc2ccc3c(c2)CN(C)CC3c2ccc(OC)cc2)CC1 (stereo not shown) .
Output line: 0.30
